- experimental target: human Y2 receptor (human) (UniProt P49146)
- Sequence (P49146 whole entry): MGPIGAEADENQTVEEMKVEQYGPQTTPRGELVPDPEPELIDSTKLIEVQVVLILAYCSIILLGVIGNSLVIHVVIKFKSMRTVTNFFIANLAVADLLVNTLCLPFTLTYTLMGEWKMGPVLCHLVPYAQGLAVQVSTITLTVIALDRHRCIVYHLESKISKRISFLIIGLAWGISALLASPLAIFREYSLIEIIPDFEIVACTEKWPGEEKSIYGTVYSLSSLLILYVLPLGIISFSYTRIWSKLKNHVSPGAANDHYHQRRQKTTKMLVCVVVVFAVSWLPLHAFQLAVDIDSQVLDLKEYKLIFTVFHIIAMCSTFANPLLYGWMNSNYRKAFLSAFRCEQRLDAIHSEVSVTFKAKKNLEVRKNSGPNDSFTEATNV
- assay explanation: cell-based or functional assay
Non-standard residues stand in square brackets, D forms with d. *: point of attachment. X2 = (tetrahydro-2H-pyran-4-ylmethyl)carbamoyl, O=C(NCC1CCOCC1)*; hArg = N=C(N)NCCCC[C@H](N)C(=O)O; 4Pal = N[C@@H](Cc1ccncc1)C(=O)O; Cha = N[C@@H](CC1CCCCC1)C(=O)O; Iva = CC[C@](C)(N)C(=O)O; Aib = CC(C)(N)C(=O)O
quantity name: GBA EC50 Ratio ([35S]GTPγS binding) (EC50 compound/EC50 PYY(3-36))

INSERT INTO measurements (binder, measured_result) VALUES
  ('X2-S[dP][Iva][4Pal][Cha][Aib]NK[Aib]TRQR[Cha]-NH2 (SMILES CC[C@](C)(NC(=O)[C@H]1CCCN1C(=O)[C@H](CO)NC(=O)NCC1CCOCC1)C(=O)N[C@@H](Cc1ccncc1)C(=O)N[C@@H](CC1CCCCC1)C(=O)NC(C)(C)C(=O)N[C@@H](CC(N)=O)C(=O)N[C@@H](CCCCN)C(=O)NC(C)(C)C(=O)N[C@H](C(=O)N[C@@H](CCCNC(=N)N)C(=O)N[C@@H](CCC(N)=O)C(=O)N[C@@H](CCCNC(=N)N)C(=O)N[C@@H](CC1CCCCC1)C(N)=O)[C@@H](C)O)', 1.9),
  ('Ac-S[dP][hArg]H[Cha][Aib]NK[Aib]TRQR[Cha]-NH2 (SMILES CC(=O)N[C@@H](CO)C(=O)N1CCC[C@@H]1C(=O)N[C@@H](CCCCNC(=N)N)C(=O)N[C@@H](Cc1c[nH]cn1)C(=O)N[C@@H](CC1CCCCC1)C(=O)NC(C)(C)C(=O)N[C@@H](CC(N)=O)C(=O)N[C@@H](CCCCN)C(=O)NC(C)(C)C(=O)N[C@H](C(=O)N[C@@H](CCCNC(=N)N)C(=O)N[C@@H](CCC(N)=O)C(=O)N[C@@H](CCCNC(=N)N)C(=O)N[C@@H](CC1CCCCC1)C(N)=O)[C@@H](C)O) [Ac-[D-Pro24, Har25, Cha27,36, Aib28,31, Lys30]-PYY(23-36)]', 2.7);
